Experiment: Effect of concentration on the stability of the solution (purity over time)
Settings: 10 wt % in 50% ethanol, 25° C.
Items are presented alongside their recorded Purity (%) at hr 24.
measured attribute: Purity (%) at hr 24

compound: CC(C)OC(=O)C(N)Cc1ccccc1 (centres unmarked) [Isopropyl 2-amino-3-phenylpropanoate, reference compound]
measured attribute: Purity (%) at hr 24
reported value: 98.7%
//
compound: CCOC(=O)c1ccccc1 [Ethyl benzoate, reference compound]
measured attribute: Purity (%) at hr 24
reported value: 97.8%
//
compound: CC(C)(C)OC(=O)C(N)Cc1ccccc1 (centres unmarked) [t-Butyl 2-amino-3-phenylpropanoate, reference compound]
measured attribute: Purity (%) at hr 24
reported value: 97.6%
//
compound: CC(C)(C)OC(=O)c1ccccc1 [t-Butyl benzoate, reference compound]
measured attribute: Purity (%) at hr 24
reported value: 25.1%
//
compound: CC(C)OC(=O)c1ccccc1 [Isopropyl benzoate, reference compound]
measured attribute: Purity (%) at hr 24
reported value: 98.8%
